compounds and their reported Papp at 150 min, 2 μM
- Tested on: MDR1 (P-glycoprotein)
- ASSAY NOTES: Permeability evaluation on MDR1-MDCK II cell line
- CONDITION DETAILS: dog, MDCK-MDR1, pH 7.4

CCn1c(CO)nn(-c2cc(O[C@@H](C)C(F)(F)F)c(/C(F)=C/c3cnccc3Cl)cc2F)c1=O [Compound 28]
> 5.5 ×10⁻⁶ cm/s

Exercise: Would you mind telling me what Papp at 150 min, 2 μM value was observed for CCn1c(CO)nn(-c2cc(O[C@@H](C)C(F)(F)F)c(/C(F)=C/c3cccnc3C(F)F)cc2F)c1=O [Compound 39] ?
Solution: > 5.5 ×10⁻⁶ cm/s

Exercise: Look up Papp at 150 min, 2 μM for this compound: CCn1c(CO)nn(-c2cc(O[C@@H](C)C(F)(F)F)c(/C(F)=C/c3ncccc3Cl)cc2F)c1=O [Compound 5]
Solution: > 5.5 ×10⁻⁶ cm/s

Exercise: Endpoint output: Papp at 150 min, 2 μM of CCn1c(CO)nn(-c2cc(O[C@@H](C)C(F)(F)F)c(/C(F)=C/c3cccnc3OC)cc2F)c1=O [Compound 6] . Value?
Solution: 1 to 5.5 ×10⁻⁶ cm/s

Exercise: Could you share which Papp at 150 min, 2 μM value was measured for CCn1c(CO)nn(-c2cc(O[C@@H](C)C(F)(F)F)c(/C(F)=C/c3cccnc3Cl)cc2F)c1=O [Compound 26] ?
Solution: > 5.5 ×10⁻⁶ cm/s

Cited source: patent US12606540B2
